Source: PubChem BioAssay (NCI)

- System: A498 renal
- Assay procedure: NCI-60 one-dose screen, 48 h
- Condition parameters: 10 µM unless noted
The panel holds about 83,000 compounds, 20% with a hit somewhere; the sample as a whole holds those more often. Active and inactive are the calls of the source. Rule for the calls: active = growth percent below 10; inactive = the rest.
Outcome codes: 1 (active), -1 (inactive)

[
  {
    "Molecule": "O=C(CN1C(=O)/C(=C/c2ccccc2)SC1=S)N1CCOCC1",
    "Answer label": -1
  },
  {
    "Molecule": "O=C(CN1CCOCC1)NNc1ncnc2ccccc12",
    "Answer label": -1
  },
  {
    "Molecule": "CS(=O)(=O)c1ccc(-c2nc3ccccn3c2/C=N/Nc2nc(-c3ccc(Cl)cc3)cs2)cc1",
    "Answer label": -1
  },
  {
    "Molecule": "CCN1C(=S)N(c2ccccc2)C2NC(=O)N(/N=C/C=C/c3ccccc3OC)C21 (centres undefined)",
    "Answer label": -1
  },
  {
    "Molecule": "Cc1ccc2ccc3ccc(C)nc3c2n1.Cc1ccc2ccc3ccc(C)nc3c2n1.Oc1c(Cl)cc(Cl)c2ccc(CN3CCCCC3)nc12.[Ru]",
    "Answer label": 1
  },
  {
    "Molecule": "O=C1Nc2ccccc2Oc2ccc(S(=O)(=O)CC3CO3)cc21 (centres undefined)",
    "Answer label": -1
  },
  {
    "Molecule": "O=C(CCN1C(=O)/C(=C/c2ccccc2F)SC1=S)N1CCOCC1",
    "Answer label": -1
  },
  {
    "Molecule": "COc1ccc(-c2nc3ccc(-c4nnc(SCC(=O)Nc5ccc(C(C)=O)cc5)o4)cc3[nH]2)cc1",
    "Answer label": -1
  },
  {
    "Molecule": "NS(=O)(=O)c1cccc(Nc2nc(SCC(=O)c3ccc(Cl)cc3)nc3ccccc23)c1",
    "Answer label": -1
  },
  {
    "Molecule": "COc1ccccc1C(=O)CSc1nc(Nc2ccc(S(N)(=O)=O)cc2)c2ccccc2n1",
    "Answer label": -1
  },
  {
    "Molecule": "O=C(c1ccc(Cl)cc1)C1[C@H](c2ccc(Cl)cc2)[C@@H](c2ccccc2)NC12C(=O)Nc1ccc(Br)cc12 (some centres undefined)",
    "Answer label": -1
  },
  {
    "Molecule": "CS(=O)(=O)c1ccc(-c2nc3ccccn3c2/C=N/Nc2nc(-c3ccc(Br)cc3)cs2)cc1",
    "Answer label": -1
  },
  {
    "Molecule": "O=C(CSc1nccc(=O)[nH]1)Nc1ccc(-c2nc3ccccc3[nH]2)cc1",
    "Answer label": -1
  },
  {
    "Molecule": "C/C(=C(/c1ccc(Cl)cc1)c1ccc(OCCN)cc1)c1ccc(C)cc1",
    "Answer label": -1
  },
  {
    "Molecule": "CC(C)NC(=O)c1cc(-c2ccc(NC(=O)Nc3ccc(N4CCOCC4)c(C(F)(F)F)c3)cc2)nc2cccnc12",
    "Answer label": -1
  },
  {
    "Molecule": "COc1cc(-c2nc3ccc(-c4nnc(SCC(=O)Nc5ccc(C(=O)/C=C/c6ccc(Cl)cc6)cc5)o4)cc3[nH]2)cc(OC)c1OC",
    "Answer label": -1
  },
  {
    "Molecule": "CN(C)S(=O)(=O)c1oc(-c2ccccc2)nc1C#N",
    "Answer label": -1
  },
  {
    "Molecule": "Nc1cc(-c2c[nH]c3ccccc23)nc2cc(-c3c[nH]c4ccccc34)nn12",
    "Answer label": -1
  },
  {
    "Molecule": "CC(C)(C)Nc1nc2c(OCCc3ccccc3)cccn2c1-c1ccccc1Cl",
    "Answer label": 1
  },
  {
    "Molecule": "COc1ccc(N/N=C/c2c(-c3ccc(S(C)(=O)=O)cc3)nc3ccccn23)cc1",
    "Answer label": -1
  },
  {
    "Molecule": "c1ccc2c(NCCCN3CCOCC3)c3oc4ccccc4c3nc2c1",
    "Answer label": 1
  },
  {
    "Molecule": "CC(C)(C)Nc1nc2c(OCCc3ccccc3)cccn2c1-c1ccc(Cl)cc1",
    "Answer label": -1
  },
  {
    "Molecule": "COc1cccc(N2CCN(c3ncnc4c3[nH]c3ccc(F)cc34)C[C@@H]2C)c1",
    "Answer label": 1
  },
  {
    "Molecule": "N#Cc1c(-c2ccc(Cl)cc2)nc(SCc2ccccc2)nc1N1CCNCC1",
    "Answer label": -1
  },
  {
    "Molecule": "N#Cc1nc(-c2ccccc2)oc1S(=O)(=O)N1CCCCC1",
    "Answer label": -1
  },
  {
    "Molecule": "CC(C)(C)Nc1nc2c(OCCc3ccccc3)cccn2c1-c1cccc(F)c1",
    "Answer label": 1
  },
  {
    "Molecule": "NC(=O)c1c(NC(=O)c2ccc(C3CCCCC3)cc2)sc2c1CCC(=O)C2",
    "Answer label": -1
  },
  {
    "Molecule": "Cc1c(NC(=O)CSc2nc3sc4c(c3c(=O)n2-c2ccc(Cl)cc2)CCCC4)c(=O)n(-c2ccccc2)n1C",
    "Answer label": -1
  },
  {
    "Molecule": "N[C@@H](Cc1cn(-c2c3ccccc3nc3ccccc23)nn1)C(=O)O",
    "Answer label": -1
  }
]
